TARGET UNDER TEST: CB1 receptor (Rattus norvegicus)
Construct: Whole rat brains or dissected regions from live CD rats; tissue Charles River or Pel-Freez Biologicals; host or cells: whole rat brain (CD rats), P2 membrane
Sequence (P20272 whole entry): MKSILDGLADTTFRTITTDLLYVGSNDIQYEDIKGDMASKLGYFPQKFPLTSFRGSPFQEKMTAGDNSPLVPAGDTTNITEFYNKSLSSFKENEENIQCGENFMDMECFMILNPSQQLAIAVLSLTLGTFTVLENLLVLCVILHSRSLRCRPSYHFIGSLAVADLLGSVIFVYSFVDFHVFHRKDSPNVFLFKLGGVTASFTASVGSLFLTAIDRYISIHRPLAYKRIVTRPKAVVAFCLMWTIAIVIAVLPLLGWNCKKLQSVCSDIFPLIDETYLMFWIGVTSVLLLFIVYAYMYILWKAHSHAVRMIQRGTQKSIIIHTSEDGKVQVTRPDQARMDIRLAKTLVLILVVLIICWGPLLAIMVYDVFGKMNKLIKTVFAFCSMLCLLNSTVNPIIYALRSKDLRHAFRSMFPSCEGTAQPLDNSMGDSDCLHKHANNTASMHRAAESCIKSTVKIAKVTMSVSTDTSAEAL
TEST: Radioligand displacement in whole rat brain (CB1) membrane preparations
Assay type: binding
CONDITION NOTES: whole rat brain; 3H-WIN55212-2; Table 4, parallel synthesis analogs, n = 1
METRIC: Max. Disp. %, 3H-WIN55212-2

q: Which Max. Disp. %, 3H-WIN55212-2 value belongs to CCCCCCC(C)NC(=O)c1nn(-c2ccc(Cl)cc2Cl)c(-c2ccc(Cl)cc2)c1C (stereo not shown) ?
a: 53.7%

q: Try this compound next: Cc1c(C(=O)NC(C)Cc2ccc(Cl)cc2)nn(-c2ccc(Cl)cc2Cl)c1-c1ccc(Cl)cc1 (stereo not shown)
a: 86.1%

q: Here is the next compound: "CCCCCCCCCCCCCNC(=O)c1nn(-c2ccc(Cl)cc2Cl)c(-c2ccc(Cl)cc2)c1C"
a: 80.5%

q: Another compound: CCCCCC(CC)NC(=O)c1nn(-c2ccc(Cl)cc2Cl)c(-c2ccc(Cl)cc2)c1C (stereo not shown)
a: 85.1%

q: Likewise for "CCCCCCCCCCCNC(=O)c1nn(-c2ccc(Cl)cc2Cl)c(-c2ccc(Cl)cc2)c1C" ?
a: 90.3%

q: Now this one: "CC(C)=CCC/C(C)=C/CNC(=O)c1nn(-c2ccc(Cl)cc2Cl)c(-c2ccc(Cl)cc2)c1C"
a: 89.0%

q: Also, CCC(C)CC(C)NC(=O)c1nn(-c2ccc(Cl)cc2Cl)c(-c2ccc(Cl)cc2)c1C (stereo not shown) please.
a: 89.9%

q: // repeat for CCCCCC(C)NC(=O)c1nn(-c2ccc(Cl)cc2Cl)c(-c2ccc(Cl)cc2)c1C (stereo not shown) and report
a: 89.0%

q: Input Cc1c(C(=O)NC(C)CCC(C)C)nn(-c2ccc(Cl)cc2Cl)c1-c1ccc(Cl)cc1 (stereo not shown)
a: 94.1%

q: Please do the same for Cc1c(C(=O)NC(C)CCCC(C)C)nn(-c2ccc(Cl)cc2Cl)c1-c1ccc(Cl)cc1 (stereo not shown) as well.
a: 87.7%

q: Also check "Cc1c(C(=O)N2CCc3ccccc3C2)nn(-c2ccc(Cl)cc2Cl)c1-c1ccc(Cl)cc1"
a: 89.0%

q: Then this compound: "Cc1c(C(=O)NCCC(c2ccccc2)c2ccccc2)nn(-c2ccc(Cl)cc2Cl)c1-c1ccc(Cl)cc1"
a: 81.1%

q: Record: "COc1ccc(NC(=O)c2nn(-c3ccc(Cl)cc3Cl)c(-c3ccc(Cl)cc3)c2C)cc1"
a: 85.8%

q: Next up: "COc1ccc(CCNC(=O)c2nn(-c3ccc(Cl)cc3Cl)c(-c3ccc(Cl)cc3)c2C)cc1"
a: 82.7%

q: # repeat for COCC(C)NC(=O)c1nn(-c2ccc(Cl)cc2Cl)c(-c2ccc(Cl)cc2)c1C (stereo not shown)
a: 84.8%

q: Follow-up item: "CCCCCCCCCCCCNC(=O)c1nn(-c2ccc(Cl)cc2Cl)c(-c2ccc(Cl)cc2)c1C"
a: 56.5%

Measured values drawn from patent US6825209B2 for this set.
